self-cleavage kobs at 2500 uM GlcN6P listing for selected variants.
B1: glmS ribozyme (parent)
chain: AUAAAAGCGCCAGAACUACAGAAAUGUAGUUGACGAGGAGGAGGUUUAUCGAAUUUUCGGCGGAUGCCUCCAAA

- Variants of: B1
- Assay Protocol: self-cleavage kobs at 2500 uM GlcN6P; higher = faster cleavage; RNA array
- Measurement Setup: with glucosamine-6-phosphate
Variants at the floor of the assay were thinned out.
# output: bare number, implied unit s⁻¹

Qu. Endpoint output: self-cleavage kobs at 2500 uM GlcN6P of A14G U55G U69A . Value?
Ans. 0.000475

Qu. Can you look up the measured self-cleavage kobs at 2500 uM GlcN6P of A12G U54A U55G for me?
Ans. 0.000119

Qu. GET /values?readout=self-cleavage kobs at 2500 uM GlcN6P&item= G41A U46G
Ans. 0.000537

Qu. // query self-cleavage kobs at 2500 uM GlcN6P value for entry U31C C71A
Ans. 0.000669

Qu. What value of self-cleavage kobs at 2500 uM GlcN6P has been recorded for this entry: A53C U55G
Ans. 0.00261

Qu. What value of self-cleavage kobs at 2500 uM GlcN6P has been reported for the following variant? G13A A53U C58A
Ans. 0.000366

Qu. Please look up its self-cleavage kobs at 2500 uM GlcN6P: A12G U31G U55A C67U
Ans. 0.00011

Qu. Data request, read-out self-cleavage kobs at 2500 uM GlcN6P, for A1U G41U C70G C71U
Ans. 0.000249

Qu. # get_value(readout='self-cleavage kobs at 2500 uM GlcN6P', item= A15U U54C U65A )
Ans. 0.000123

Qu. Form field: reported self-cleavage kobs at 2500 uM GlcN6P of U56G G66U
Ans. 0.000576

Qu. Would you kindly share the measured self-cleavage kobs at 2500 uM GlcN6P for C16G G29C ?
Ans. 0.00501

Qu. Fill blank: measured self-cleavage kobs at 2500 uM GlcN6P of the variant G29C G32A is ____.
Ans. 0.000762

Qu. Item A52U C70U has what recorded self-cleavage kobs at 2500 uM GlcN6P?
Ans. 0.000228

Qu. What does the data say about its self-cleavage kobs at 2500 uM GlcN6P? Entry: G32A U49G
Ans. 4.58e-05

Qu. Tell me the measured self-cleavage kobs at 2500 uM GlcN6P of C11U U56A G66A , please.
Ans. 0.000197

Qu. Form field: reported self-cleavage kobs at 2500 uM GlcN6P of G29A U55A C67U
Ans. 0.000242

Qu. Which self-cleavage kobs at 2500 uM GlcN6P value is on record for A14G U30A G41C ?
Ans. 0.000337

Qu. Bench note: what self-cleavage kobs at 2500 uM GlcN6P did A14U U30A C71G show?
Ans. 5.1e-05

Qu. Recorded self-cleavage kobs at 2500 uM GlcN6P for A39C U55A , please?
Ans. 0.00295

Qu. Looking for the measured self-cleavage kobs at 2500 uM GlcN6P of U45C C68G , can you help?
Ans. 8.62e-05
